Test: Clearance in Balb/c mouse at 1 mg/kg, iv administered as bolus dose or 3 mg/kg, po administered via gavage by LC-MS/MS analysis
Format: ADME, organism-based
Settings: in vivo
Property measured: clearance (mL/min/kg)
Provide only the numeric value, understood in mL/min/kg.

Exam item: Give its clearance value. Item: Cc1c(N2CCCC2)nc2ccc(Br)cc2c1C(=O)NC[C@H](CCC(=O)O)c1ccccc1Cl
Marked response: 18.3

====

Biological target: Prostaglandin F2-alpha receptor (Homo sapiens)
Sequence (P43088 whole entry): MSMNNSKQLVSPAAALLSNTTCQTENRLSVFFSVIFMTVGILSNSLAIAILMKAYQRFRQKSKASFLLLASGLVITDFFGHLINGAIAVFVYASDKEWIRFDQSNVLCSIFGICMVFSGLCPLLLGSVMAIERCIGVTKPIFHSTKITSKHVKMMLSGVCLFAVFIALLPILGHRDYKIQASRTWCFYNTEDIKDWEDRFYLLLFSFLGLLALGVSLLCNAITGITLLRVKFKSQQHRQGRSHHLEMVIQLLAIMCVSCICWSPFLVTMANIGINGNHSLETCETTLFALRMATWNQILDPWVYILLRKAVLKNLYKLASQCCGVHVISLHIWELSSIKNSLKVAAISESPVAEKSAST
Assay: Displacement of [3H]PGF2alpha from full-length recombinant human FP receptor expressed in HEK293 cell membranes measured after 60 mins by scintillation counting method
Property measured: IC50 (nM)
Please state the figure in nM; there is no need to write the unit.

Exam item: Recorded IC50 for Cc1c(-c2cccs2)nc2ccc(Br)cc2c1C(=O)NCCc1cccnc1 with Prostaglandin F2-alpha receptor (Homo sapiens), please?
Marked response: 1400

====

Form field: bioavailability (one value per entry).
Experiment: Relative oral bioavailability in Wistar rat at 1 to 3 mg/kg administered via gavage using crystalline form of sample in sodium salt formulation by LC-MS/MS analysis
Assay type: ADME, organism-based
Conditions: in vivo, dose 1-3 mg/kg
Kindly provide the numeric value in % only, without the unit symbol.

{"Compound structure": "Cc1c(-c2ccccc2)nc2ccc(Br)cc2c1C(=O)Nc1ccc(C(=O)[O-])cc1F.[Na+]", "bioavailability, %": 29}

Kindly consider the entry below.
Exam item: Reported bioavailability, compound Cc1c(-c2ccccc2)nc2ccc(Br)cc2c1C(=O)NC12CCC(C(=O)[O-])(CC1)CC2.[Na+] : ____
Marked response: 80

====

Test: Solubility of compound in 0.1 M HCl using crystalline form of sample
Assay type: physicochemical
Property measured: solubility
Please answer using the number first and the unit second.

Exam item: What does the data say about its solubility? Entry: Cc1c(N2CCCC2)nc2ccc(Br)cc2c1C(=O)NC[C@H](CCC(=O)O)c1ccccc1Cl
Marked response: 440 µg/mL

====

Experiment: Solubility of compound in water using crystalline form of sample
Assay type: physicochemical
Property measured: solubility (µg/mL)
Give the value, in units of µg/mL, as a plain number.

Exam item: Entry Cc1c(N2CCCC2)nc2ccc(Br)cc2c1C(=O)NC[C@H](CCC(=O)O)c1ccccc1Cl.Cl : reported solubility = ?
Marked response: 2300

====

Assay: Oral bioavailability in Beagle dog at 1 mg/kg administered via gavage by LC-MS/MS analysis
Format: ADME, organism-based, Canis lupus familiaris
Settings: in vivo
Property measured: bioavailability (%)
Give your result in % as a bare value.

Exam item: May I ask what bioavailability has been recorded for Cc1c(N2CCCC2)nc2ccc(Br)cc2c1C(=O)NC[C@H](CCC(=O)O)c1ccccc1Cl [BAY-6672] ?
Marked response: 45

====

Target: Prostaglandin E2 receptor EP4 subtype (Homo sapiens)
Sequence (P35408 whole entry): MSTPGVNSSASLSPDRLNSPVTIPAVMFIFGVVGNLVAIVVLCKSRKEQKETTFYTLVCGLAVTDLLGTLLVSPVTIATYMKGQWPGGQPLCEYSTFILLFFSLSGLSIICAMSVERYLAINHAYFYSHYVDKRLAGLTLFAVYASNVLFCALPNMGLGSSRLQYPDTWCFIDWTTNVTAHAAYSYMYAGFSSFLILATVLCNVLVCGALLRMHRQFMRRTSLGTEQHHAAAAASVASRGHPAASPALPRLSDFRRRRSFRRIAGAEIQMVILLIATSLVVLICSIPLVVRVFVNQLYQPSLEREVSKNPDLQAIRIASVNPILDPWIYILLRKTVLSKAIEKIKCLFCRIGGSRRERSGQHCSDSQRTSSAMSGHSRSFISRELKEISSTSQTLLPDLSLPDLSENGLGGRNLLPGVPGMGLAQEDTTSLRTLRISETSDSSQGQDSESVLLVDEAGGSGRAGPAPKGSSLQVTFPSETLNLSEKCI
Experiment: Displacement of [3H]prostaglandin E2 from full-length recombinant human EP4 receptor expressed in HEK293 cell membranes measured after 120 mins by scintillation counting method
Property measured: IC50

Exam item: Please state recorded IC50 (tested on Prostaglandin E2 receptor EP4 subtype (Homo sapiens)) of Cc1c(N2CCCC2)nc2ccc(Br)cc2c1C(=O)NC[C@H](CCC(=O)O)c1ccccc1Cl
Marked response: > 9.4 µM

====

Assay: Volume of distribution at steady state in Beagle dog at 0.5 mg/kg, iv administered as 15 mins infusion or 1 mg/kg, po administered via gavage by LC-MS/MS analysis
Assay type: ADME, organism-based, Canis lupus familiaris
Details: in vivo, read-out: Vdss
Property measured: Vd (L/kg)
Dear colleague, please return just the value in L/kg, with no unit written.

Exam item: Quick check: Vd of Cc1c(N2CCCC2)nc2ccc(Br)cc2c1C(=O)NC[C@H](CCC(=O)O)c1ccccc1Cl [BAY-6672] ?
Marked response: 1.8

====

Molecular target: Prostacyclin receptor (Homo sapiens)
Sequence (P43119 whole entry): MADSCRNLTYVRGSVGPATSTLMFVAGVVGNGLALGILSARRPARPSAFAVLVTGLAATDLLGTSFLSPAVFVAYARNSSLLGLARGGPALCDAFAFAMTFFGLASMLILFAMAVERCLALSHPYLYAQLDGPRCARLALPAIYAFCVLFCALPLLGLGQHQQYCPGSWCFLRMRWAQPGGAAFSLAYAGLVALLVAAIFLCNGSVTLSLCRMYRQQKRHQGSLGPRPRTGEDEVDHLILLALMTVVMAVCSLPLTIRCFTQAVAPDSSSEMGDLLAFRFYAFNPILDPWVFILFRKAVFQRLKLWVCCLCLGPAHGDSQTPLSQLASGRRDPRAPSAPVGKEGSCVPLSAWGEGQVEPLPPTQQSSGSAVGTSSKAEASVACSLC
Assay: Displacement of [3H]PGD2 from full-length recombinant human IP receptor expressed in HEK293 cell membranes measured after 60 mins by scintillation counting method
pIC50: −log10 of the molar value.
Property measured: pIC50

Exam item: For the molecule Cc1c(N2CCCC2)nc2ccc(Br)cc2c1C(=O)NC[C@H](CCC(=O)O)c1ccccc1Cl , what pIC50 is on record?
Marked response: < 5.00

====

Test: Lipophilicity, log D of compound at pH 7.5 by HPLC analysis
Details: buffer
Form field: logD (one value per entry).
Please give only the number in your answer, with no unit.

{"Compound": "Cc1c(-c2ccccc2)nc2ccc(I)cc2c1C(=O)Nc1ccc(C(=O)O)cc1F", "Experimental value": 2}
{"Compound": "Cc1c(N2CCCC2)nc2ccc(Br)cc2c1C(=O)NC[C@@H](CCC(=O)O)c1ccccc1Cl", "Experimental value": 2.3}
{"Compound": "COc1ccc(C(CNC(=O)c2c(C)c(-c3ccccc3)nc3ccc(Br)cc23)CC(=O)O)cc1 (racemic)", "Experimental value": 1.9}
{"Compound": "Cc1c(C(=O)Nc2ccc(C(=O)O)cc2F)c2cc(Br)ccc2c(=O)n1-c1ccccc1", "Experimental value": 1.6}

Exam item: Query: logD; subject: Cc1c(-c2ccccc2)nc2ccc(Br)cc2c1C(=O)Nc1ccc(C(=O)O)cc1
Marked response: 1.9

====

Assay: Apparent permeability in human Caco-2 cells measured after 2 hrs by HPLC analysis
Assay type: ADME, cell-based
Known Papp at 2 h of a selection of molecules
Unit ×10⁻⁶ cm/s implied. Number only.

Exam item: Requested read-out: Papp at 2 h. Entry: Cc1c(C(=O)Nc2ccc(C(=O)O)cc2F)c2cc(Br)ccc2c(=O)n1-c1ccccc1
Marked response: 3.9

Exam item: Ok, now Cc1c(-c2ccccc2)nc2ccc(Br)cc2c1C(=O)NCC(CCCC(=O)O)c1ccccc1Cl (stereo in doubt; 44)
Marked response: 40.1

Exam item: What do you get for Cc1c(N2CCCC2)nc2ccc(Br)cc2c1C(=O)NC[C@H](CCC(=O)O)c1ccccc1Cl [BAY-6672] ?
Marked response: 26.7

====

Experiment: Clearance in Wistar rat at 0.3 to 1 mg/kg, iv administered as bolus dose or 15 mins infusion by LC-MS/MS analysis
Format: ADME, organism-based
Conditions: Wistar, in vivo, dose 0.3-1 mg/kg
Threshold rule: clearance greater than or equal to 20 mL/min/kg is Condition met; below that, Condition not met.

Consider the worked cases shown below.
{"Molecule": "Cc1c(N2CCCC2)nc2ccc(Br)cc2c1C(=O)NC[C@H](CCC(=O)O)c1ccccc1Cl", "Assigned class": "Condition not met"}
{"Molecule": "Cc1c(-c2ccccc2)nc2ccc(Br)cc2c1C(=O)NCC(CCC(=O)O)c1c(F)ccc(F)c1Cl (single isomer, unassigned; (-))", "Assigned class": "Condition met"}
{"Molecule": "Cc1c(C(=O)Nc2ccc(C(=O)O)cc2F)c2cc(Br)ccc2c(=O)n1-c1ccccc1", "Assigned class": "Condition met"}
{"Molecule": "Cc1c(-c2ccccc2)nc2ccc(Br)cc2c1CNc1ccc(C(=O)O)cc1F", "Assigned class": "Condition not met"}
{"Molecule": "COc1ccccc1C(C)CNC(=O)c1c(C)c(-c2ccccc2)nc2ccc(Br)cc12 (single isomer, unassigned; (-))", "Assigned class": "Condition met"}
{"Molecule": "Cc1c(N2CCCCCC2)nc2ccc(Br)cc2c1C(=O)NCC(CCC(=O)O)c1ccccc1Cl (single isomer, unassigned; (+))", "Assigned class": "Condition met"}
{"Molecule": "COc1ccccc1C(CNC(=O)c1c(C)c(-c2ccccc2)nc2ccc(Br)cc12)CC(=O)O (single isomer, unassigned; (+))", "Assigned class": "Condition met"}
{"Molecule": "Cc1c(-c2ccccc2)nc2ccc(Br)cc2c1C(=O)Nc1ccc(C(=O)O)cc1", "Assigned class": "Condition met"}

Exam item: Check if clearance >= 20 mL/min/kg (inclusive). Item: Cc1c(-c2ccccc2)nc2ccc(Br)cc2c1C(=O)NCC(CCC(=O)O)c1ccccc1Cl (single isomer, unassigned; (+))
Marked response: Condition met

Exam item: Can you handle Cc1c(N2CCCCC2)nc2ccc(Br)cc2c1C(=O)NCC(CCC(=O)O)c1c(F)ccc(F)c1Cl (single isomer, unassigned; (-)) next?
Marked response: Condition met

Exam item: Also, Cc1c(-c2ccccc2)nc2ccc(Br)cc2c1C(=O)NCC(CCCC(=O)O)c1ccccc1Cl (stereo in doubt; 44) please.
Marked response: Condition met

Exam item: Quick one: Cc1c(-c2ccccc2)cc2ccc(Br)cc2c1C(=O)Nc1ccc(C(=O)O)cc1F
Marked response: Condition not met

Exam item: # repeat for Cc1c(-c2ccccc2)nc2ccc(Br)cc2c1C(=O)NCC(C(=O)O)c1ccccc1Cl (stereo in doubt; 31)
Marked response: Condition met

====

Biological target: Prostaglandin F2-alpha receptor (Homo sapiens)
Test: Antagonist activity at human FPR expressed in human Chem-1 cells assessed as inhibition of PGF2alpha-induced calcium flux preincubated for 10 mins followed by PGF2alpha stimulation and measured for 120 secs by fluo-8 AM dye based fluorescence assay
Format: functional, cell-based
pIC50: −log10 of the molar value.
# pIC50 >= 7 gives yes, anything below gives no

{"Compound": "Cc1c(-c2ccccc2)nc2ccc(Br)cc2c1C(=O)Nc1ccc(-c2nnn[nH]2)cc1F", "Target under test": "Prostaglandin F2-alpha receptor (Homo sapiens)", "Assigned class": "yes"}
{"Compound": "Cc1c(-c2ccccc2)nc2ccc(Br)cc2c1C(=O)NC(C)Cc1ccccn1 (racemic)", "Target under test": "Prostaglandin F2-alpha receptor (Homo sapiens)", "Assigned class": "no"}
{"Compound": "CCC1CCCN(c2nc3ccc(Br)cc3c(C(=O)NCC(CCC(=O)O)c3ccccc3Cl)c2C)C1 (single isomer, unassigned; 55)", "Target under test": "Prostaglandin F2-alpha receptor (Homo sapiens)", "Assigned class": "yes"}
{"Compound": "Cc1c(C(=O)Nc2ccc(C(=O)O)cc2F)c2cc(Br)ccc2c(=O)n1-c1ccccc1", "Target under test": "Prostaglandin F2-alpha receptor (Homo sapiens)", "Assigned class": "yes"}

Exam item: Hi team, for COc1ccccc1C(C)CNC(=O)c1c(C)c(-c2ccccc2)nc2ccc(Br)cc12 (single isomer, unassigned; (-)) , is the recorded pIC50 at or above 7?
Marked response: yes

Exam item: Now consider CCC1CCCN(c2nc3ccc(Br)cc3c(C(=O)NCC(CCC(=O)O)c3ccccc3Cl)c2C)C1 (single isomer, unassigned; 52) .
Marked response: yes

Exam item: Now give it for Cc1c(-c2ccccc2)cc2ccc(Br)cc2c1C(=O)Nc1ccc(C(=O)O)cc1F too.
Marked response: yes

Exam item: And for Cc1c(-c2cccs2)nc2ccc(Br)cc2c1C(=O)NCCc1cccnc1 ?
Marked response: no

Exam item: Request: COc1ccc(C(CNC(=O)c2c(C)c(-c3ccccc3)nc3ccc(Br)cc23)CC(=O)O)cc1 (racemic)
Marked response: no

Exam item: And what about the compound COc1ccccc1C(C)CNC(=O)c1c(C)c(-c2ccccc2)nc2ccc(Br)cc12 (single isomer, unassigned; (+)) ?
Marked response: no
